Tested on: HT-29
Experiment: Cytotoxicity against human HT-29 cells after 72 hrs by MTT assay
Assay type: functional, cell-based
Details: HT-29, 72 h
Mark each entry Fulfilled if its IC50 sits below 1000 nM, and Not fulfilled for all others.

>>> print(df.to_string())
                                    molecule    label_class
 0  COc1cc(/C=N/NC(=O)Nc2ccc(Oc3ccnc(-c4nncn4CCN(C)C)c3)c(F)c2)cc(OC)c1OC  Not fulfilled
 1  CN(C)CCn1cnnc1-c1cc(Oc2ccc(NC(=O)N/N=C/c3ccc(O)c(Br)c3)cc2F)ccn1      Fulfilled
 2  COc1ccc(/C=N/NC(=O)Nc2ccc(Oc3ccnc(-c4nncn4CCN(C)C)c3)c(F)c2)c(OC)c1  Not fulfilled
 3  COc1ccc(/C=N/NC(=O)Nc2ccc(Oc3ccnc(-c4nncn4CCN(C)C)c3)c(F)c2)cc1O      Fulfilled
 4  COc1ccc(/C=N/NC(=O)Nc2ccc(Oc3ccnc(-c4nncn4CCN(C)C)c3)c(F)c2)c(OC)c1OC  Not fulfilled
 5  CN(C)CCn1cnnc1-c1cc(Oc2ccc(NC(=O)N/N=C/c3ccc(O)cc3)cc2F)ccn1  Not fulfilled
 6  CN(C)CCn1cnnc1-c1cc(Oc2ccc(NC(=O)N/N=C/c3ccc(O)cc3O)cc2F)ccn1  Not fulfilled
 7  COc1ccc(OC)c(/C=N/NC(=O)Nc2ccc(Oc3ccnc(-c4nncn4CCN(C)C)c3)c(F)c2)c1  Not fulfilled
 8  CN(C)CCn1cnnc1-c1cc(Oc2ccc(NC(=O)N/N=C/c3c(Cl)cccc3Cl)cc2F)ccn1      Fulfilled
 9  CN(C)CCn1cnnc1-c1cc(Oc2ccc(NC(=O)N/N=C/c3ccc(Cl)cc3)cc2F)ccn1      Fulfilled
10  COc1cc(/C=N/NC(=O)Nc2ccc(Oc3ccnc(-c4nncn4CCN(C)C)c3)c(F)c2)ccc1O      Fulfilled
11  CN(C)CCn1cnnc1-c1cc(Oc2ccc(NC(=O)N/N=C/c3cc(C(C)(C)C)cc(C(C)(C)C)c3O)cc2F)ccn1      Fulfilled
12  CN(C)CCn1cnnc1-c1cc(Oc2ccc(NC(=O)N/N=C/c3cc(Br)c(O)c(Br)c3)cc2F)ccn1  Not fulfilled
13  CN(C)CCn1cnnc1-c1cc(Oc2ccc(NC(=O)N/N=C/c3ccccc3[N+](=O)[O-])cc2F)ccn1      Fulfilled
14  CN(C)CCn1cnnc1-c1cc(Oc2ccc(NC(=O)N/N=C/c3c[nH]c4ccccc34)cc2F)ccn1  Not fulfilled
15  CN(C)CCn1cnnc1-c1cc(Oc2ccc(NC(=O)N/N=C/c3ccc4c(c3)OCO4)cc2F)ccn1      Fulfilled

###

Test system: A549
Assay: Cytotoxicity against human A549 cells after 72 hrs by MTT assay
Assay type: functional, cell-based
Conditions: A549, 72 h
pIC50: −log10 of the molar value.
Measured pIC50 of individual entries
Quantity measured: pIC50

>>> df
                                    molecule  quantity_measured  value_modifier  value
 0  CN(C)CCn1cnnc1-c1cc(Oc2ccc(NC(=O)N/N=C/c3ccc(O)c(O)c3)cc2F)ccn1              pIC50               <   4.00
 1  CN(C)CCn1cnnc1-c1cc(Oc2ccc(NC(=O)N/N=C/c3cccc(O)c3)cc2F)ccn1              pIC50               <   4.00
 2  CN(C)CCn1cnnc1-c1cc(Oc2ccc(NC(=O)N/N=C/c3ccc(Cl)cc3Cl)cc2F)ccn1              pIC50               =   6.09
 3  COc1ccc(/C=N/NC(=O)Nc2ccc(Oc3ccnc(-c4nncn4CCN(C)C)c3)c(F)c2)c(OC)c1              pIC50               =   5.55
 4  COc1ccc(OC)c(/C=N/NC(=O)Nc2ccc(Oc3ccnc(-c4nncn4CCN(C)C)c3)c(F)c2)c1              pIC50               =   5.71
 5  COc1cc(/C=N/NC(=O)Nc2ccc(Oc3ccnc(-c4nncn4CCN(C)C)c3)c(F)c2)cc(OC)c1OC              pIC50               <   4.00
 6  COc1ccc(/C=N/NC(=O)Nc2ccc(Oc3ccnc(-c4nncn4CCN(C)C)c3)c(F)c2)cc1O              pIC50               <   4.00
 7  CN(C)CCn1cnnc1-c1cc(Oc2ccc(NC(=O)N/N=C/c3cccc(Br)c3)cc2F)ccn1              pIC50               =   6.01
 8  CN(C)CCn1cnnc1-c1cc(Oc2ccc(NC(=O)N/N=C/c3c(Cl)cccc3Cl)cc2F)ccn1              pIC50               =   5.85
 9  CN(C)CCn1cnnc1-c1cc(Oc2ccc(NC(=O)N/N=C/c3ccccc3)cc2F)ccn1              pIC50               =   5.73
10  CN(C)CCn1cnnc1-c1cc(Oc2ccc(NC(=O)N/N=C/c3ccc(F)cc3)cc2F)ccn1              pIC50               =   5.75
11  CN(C)CCn1cnnc1-c1cc(Oc2ccc(NC(=O)N/N=C/c3ccc4c(c3)OCO4)cc2F)ccn1              pIC50               =   5.74
12  CN(C)CCn1cnnc1-c1cc(Oc2ccc(NC(=O)N/N=C/c3cccc(Cl)c3Cl)cc2F)ccn1              pIC50               =   5.96
13  CN(C)CCn1cnnc1-c1cc(Oc2ccc(NC(=O)N/N=C/c3ccccc3[N+](=O)[O-])cc2F)ccn1              pIC50               =   5.92
14  CN(C)CCn1cnnc1-c1cc(Oc2ccc(NC(=O)N/N=C/c3ccc(F)cc3F)cc2F)ccn1              pIC50               =   5.73
15  Cn1cnnc1-c1cc(Oc2ccc(NC(=O)N/N=C/c3ccccc3)cc2F)ccn1              pIC50               =   5.12
16  COc1cc(/C=N/NC(=O)Nc2ccc(Oc3ccnc(-c4nncn4CCN(C)C)c3)c(F)c2)ccc1O              pIC50               <   4.00
17  Cc1cc(/C=N/NC(=O)Nc2ccc(Oc3ccnc(-c4nncn4CCN(C)C)c3)c(F)c2)cc(C)c1O              pIC50               =   5.79

Origin of the recorded values: ChEMBL document CHEMBL3259649
